procedure.details: Solubility determination of MK2 inhibitors (kinetic aqueous solubility, UPLC)
Type: physicochemical
assay.context: aqueous buffer (system solution from pION inc.), 22 °C, pH 7.4, aqueous buffer, kinetic from dmso stock, Table 1, compound of Formula (I) with spiro ring; pH 7.4; read-out: Solubility pH 7.4 (mg/L), Formula (I)
Recorded solubility at 24 h values for a group of compounds are listed next.
Could you give me the number in mg/L? Just the number is fine.

Worked examples follow.
| compound | numeric.value |
| --- | --- |
| O=C1NCC2(CCNCC2)c2[nH]c(-c3ccnc(-c4cc5ccccc5o4)c3)cc21 [16_7 Formula (I)] | 66 |
| O=C1NCC2(CCNCC2)c2[nH]c(-c3ccnc(-c4ccc5c(c4)OCO5)n3)cc21 [16_5 Formula (I)] | 37 |
| O=C1NCC2(CCNCC2)c2[nH]c(-c3ccnc(-c4cc5ccccc5o4)n3)cc21 [16_6 Formula (I)] | 84 |

Which solubility at 24 h reading was recorded for the compound O=C1NCC2(CCNCC2)c2[nH]c(-c3ccnc(-c4cccc(F)c4)n3)cc21 [16_3 Formula (I)] ?
36

---

The entries below are paired with their reported solubility at 24 h.
procedure.details: Solubility determination of MK2 inhibitors (kinetic aqueous solubility, UPLC)
Format: physicochemical
assay.context: aqueous buffer (system solution from pION inc.), 22 °C, pH 7.4, aqueous buffer, kinetic from dmso stock, pH 7.4, room temperature, about 1% DMSO, 24 h shaking; read-out: solubility

Sample records with solubility at 24 h:
| compound | solubility at 24 h |
| --- | --- |
| CC(=O)NCCCN1CCC2(CC1)CNC(=O)c1cc(-c3ccnc(-c4cc5ccccc5o4)n3)[nH]c12 | ≥ 50 µg/mL |
| COc1cncc(-c2nccc(-c3cc4c([nH]3)C3(CCNCC3)CNC4=O)n2)c1 | 20 to 50 µg/mL |
| O=C(Nc1nccc(-c2cc3c([nH]2)C2(CCCNC2)CNC3=O)n1)c1ccc(C(F)(F)F)cc1 (stereo not shown) | 20 to 50 µg/mL |
| O=C(NC1CCCCC1)c1ccc(-c2nccc(-c3cc4c([nH]3)C3(CCNCC3)CNC4=O)n2)cc1 | ≥ 50 µg/mL |

Item under review: O=C1NCC2(CCNC2)c2[nH]c(-c3ccnc(-c4ccc5c(c4)OCO5)n3)cc21 (stereo not shown) . Reported solubility at 24 h?
≥ 50 µg/mL

Would you kindly share the measured solubility at 24 h for O=C1NCC2(CCNCC2)c2[nH]c(-c3ccnc(-c4cc(C(F)(F)F)cc(C(F)(F)F)c4)n3)cc21 ?
≥ 50 µg/mL

State the recorded solubility at 24 h for this entry: O=C1NCC2(CCNCC2)c2[nH]c(-c3ccnc(-c4cc5ccccc5o4)n3)cc21
20 to 50 µg/mL

---

test.system: MK2 enzyme (Homo sapiens, UniProt P49137)
Construct: MK2 enzyme (active enzyme (peptide 46-end (Millipore))); purchased Millipore
Sequence (P49137 46-400 limits assumed): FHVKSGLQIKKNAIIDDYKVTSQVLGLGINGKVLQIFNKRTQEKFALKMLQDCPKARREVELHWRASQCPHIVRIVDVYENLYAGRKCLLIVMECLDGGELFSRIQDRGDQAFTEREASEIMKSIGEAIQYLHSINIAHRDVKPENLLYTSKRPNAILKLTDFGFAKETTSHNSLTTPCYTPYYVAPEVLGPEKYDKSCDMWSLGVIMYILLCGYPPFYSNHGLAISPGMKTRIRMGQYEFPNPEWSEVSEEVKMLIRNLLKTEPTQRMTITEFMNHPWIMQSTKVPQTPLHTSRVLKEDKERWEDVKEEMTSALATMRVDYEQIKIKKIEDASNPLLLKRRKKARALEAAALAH
procedure.details: MK2 enzyme activity, IMAP fluorescence polarization assay
Type: biochemical
assay.context: MK2 IMAP assay, 1 μM ATP, 30 min pre-incubation, 2 h room temperature; read-out: pEC50 value (converted)
Recorded EC50, one value per entry.

| molecule | EC50 |
| --- | --- |
| CC(=O)NCCCN1CCC2(CC1)CNC(=O)c1cc(-c3ccnc(-c4cc5ccccc5o4)n3)[nH]c12 [3—2] | 31.6 to 316 nM |
| O=C1NCC2(CCNCC2)c2[nH]c(-c3ccnc(-c4ccc(C(F)(F)F)c(Cl)c4)n3)cc21 [1—10] | 3.16 to 31.6 nM |
| CC(C)Cc1ccc(-c2nccc(-c3cc4c([nH]3)C3(CCNCC3)CNC4=O)n2)cc1 [1—23] | 3.16 to 31.6 nM |

I would be grateful if you could share the reported EC50 for O=C1NCC2(CCNCC2)c2[nH]c(-c3ccnc(-c4ccc(Cl)c(Cl)c4)n3)cc21 [Example 1—13] .
3.16 to 31.6 nM

What does the record list as EC50 for O=C1NCC2(CCCNC2)c2[nH]c(-c3ccnc(-c4ccc5c(c4)OCO5)n3)cc21 (stereo not shown) [5—2] ?
3.16 to 31.6 nM

Recorded EC50 of O=C1NCC2(CCNCC2)c2[nH]c(-c3nc(-c4ccc5c(c4)OCO5)ncc3F)cc21 [4—2] , please.
3.16 to 31.6 nM

# get_value(readout='EC50', item= O=C(NC1CCCCC1)c1ccc(-c2nccc(-c3cc4c([nH]3)C3(CCNCC3)CNC4=O)n2)cc1Cl [1—31] )
3.16 to 31.6 nM

I am curious: what EC50 value has been reported for O=C1NCC2(CCNC2)c2[nH]c(-c3ccnc(-c4cnc5ccccc5c4)n3)cc21 (stereo not shown) [Example 6—1] ?
≤ 3.16 nM

---

Recorded solubility at 24 h values for a group of compounds are listed next.
procedure.details: Solubility determination of MK2 inhibitors (kinetic aqueous solubility, UPLC)
Type: physicochemical
assay.context: aqueous buffer (system solution from pION inc.), 22 °C, pH 7.4, aqueous buffer, kinetic from dmso stock, pH 7.4, room temperature, about 1% DMSO, 24 h shaking; read-out: solubility

Solved entries:
| compound | solubility at 24 h |
| --- | --- |
| O=C1NCC2(CCNCC2)c2[nH]c(-c3ccnc(-c4nccs4)n3)cc21 | ≥ 50 µg/mL |
| O=C1NCC2(CCNCC2)c2[nH]c(-c3ccnc(-c4cnc5ccccc5c4)n3)cc21 | 20 to 50 µg/mL |
| NCCN1CCC2(CC1)CNC(=O)c1cc(-c3ccnc(-c4cc5ccccc5o4)n3)[nH]c12 | ≥ 50 µg/mL |
| O=C1NCC2(CCNCC2)c2[nH]c(-c3ccnc(-c4cc5ccccc5o4)c3)cc21 | ≥ 50 µg/mL |
| O=C1NCC2(CCNCC2)c2[nH]c(-c3ccnc(-c4ccc5oc6ccccc6c5c4)n3)cc21 | 20 to 50 µg/mL |
| CC(=O)c1ccc(-c2nccc(-c3cc4c([nH]3)C3(CCNCC3)CNC4=O)n2)cc1 | 20 to 50 µg/mL |

Query compound follows.
Param item = CC(=O)NCCN1CCC2(CC1)CNC(=O)c1cc(-c3ccnc(-c4cc5ccccc5o4)n3)[nH]c12 ; retrieve measured solubility at 24 h.
≥ 50 µg/mL

---

procedure.details: Solubility determination of MK2 inhibitors (kinetic aqueous solubility, UPLC)
Type: physicochemical
assay.context: aqueous buffer (system solution from pION inc.), 22 °C, pH 7.4, aqueous buffer, kinetic from dmso stock, pH 7.4, room temperature, about 1% DMSO, 24 h shaking; read-out: solubility
Reported solubility at 24 h values are given for each entry in this list.

| smiles.record | solubility at 24 h |
| --- | --- |
| CC(C)c1cccc(-c2nccc(-c3cc4c([nH]3)C3(CCNCC3)CNC4=O)n2)c1 | 20 to 50 µg/mL |
| CC(=O)c1cccc(-c2nccc(-c3cc4c([nH]3)C3(CCNCC3)CNC4=O)n2)c1 | ≥ 50 µg/mL |

Let us examine a further case.
Query (compound): O=C1NCC2(CCNCC2)c2[nH]c(-c3ccnc(-c4ccc(C(F)(F)F)c(Cl)c4)n3)cc21 ; field requested: solubility at 24 h
≥ 50 µg/mL

---

Below, each entry is listed with its recorded EC50.
test.system: MK2 enzyme (Homo sapiens, UniProt P49137)
Construct: MK2 enzyme (active enzyme (peptide 46-end (Millipore))); purchased Millipore
procedure.details: MK2 enzyme activity, IMAP fluorescence polarization assay
Assay type: biochemical
assay.context: MK2 IMAP assay, 1 μM ATP, 30 min pre-incubation, 2 h room temperature; read-out: pEC50 value (converted)

Use these answered entries as a reference point.
| compound | test.system | EC50 |
| --- | --- | --- |
| CC(=O)c1cccc(-c2nccc(-c3cc4c([nH]3)C3(CCNCC3)CNC4=O)n2)c1 | MK2 enzyme (Homo sapiens, UniProt P49137) | 3.16 to 31.6 nM |
| O=C1NCC2(CCNCC2)c2[nH]c(-c3ccnc(-c4cc5ccccc5o4)n3)cc21 | MK2 enzyme (Homo sapiens, UniProt P49137) | 3.16 to 31.6 nM |
| O=C1NCC2(CCNCC2)c2[nH]c(-c3ccnc(-c4cnc5ccccc5c4)c3)cc21 | MK2 enzyme (Homo sapiens, UniProt P49137) | ≤ 3.16 nM |
| O=C1NCC2(CCNC2)c2[nH]c(-c3ccnc(-c4ccc5c(c4)OCO5)n3)cc21 (centres unmarked) | MK2 enzyme (Homo sapiens, UniProt P49137) | 3.16 to 31.6 nM |
| CC(=O)Nc1ccc(-c2nccc(-c3cc4c([nH]3)C3(CCNCC3)CNC4=O)n2)cn1 | MK2 enzyme (Homo sapiens, UniProt P49137) | 3.16 to 31.6 nM |

Give recorded EC50 with MK2 enzyme (Homo sapiens, UniProt P49137) for the following compound: O=C1NCC2(CCNCC2)c2[nH]c(-c3ccnc(-c4cccc(F)c4)n3)cc21
3.16 to 31.6 nM

Fill in the recorded EC50 for this compound, with MK2 enzyme (Homo sapiens, UniProt P49137) as test system: NCC(=O)N1CCC2(CC1)CNC(=O)c1cc(-c3ccnc(-c4cc5ccccc5o4)n3)[nH]c12
31.6 to 316 nM

Could you share what EC50 was measured for Cc1ccc(-c2nccc(-c3cc4c([nH]3)C3(CCNC3)CNC4=O)n2)cc1 (centres unmarked) , tested on MK2 enzyme (Homo sapiens, UniProt P49137)?
3.16 to 31.6 nM

Provide value of EC50 for this record tested with MK2 enzyme (Homo sapiens, UniProt P49137): CNC(=O)c1ccc(-c2ncc(F)c(-c3cc4c([nH]3)C3(CCNCC3)CNC4=O)n2)cc1
3.16 to 31.6 nM

Form: Entry = O=C1NCC2(CCNCC2)c2[nH]c(-c3ccnc(-c4cccc(OC(F)(F)F)c4)n3)cc21 | System = MK2 enzyme (Homo sapiens, UniProt P49137) | EC50 = ____
3.16 to 31.6 nM

Query EC50 on MK2 enzyme (Homo sapiens, UniProt P49137) for O=C1NCC2(CCNCC2)c2[nH]c(-c3ccnc(-c4ccc(C5CCCCC5)cc4)n3)cc21
31.6 to 316 nM

Any idea what EC50 came out for COc1cncc(-c2nccc(-c3cc4c([nH]3)C3(CCNCC3)CNC4=O)n2)c1 on MK2 enzyme (Homo sapiens, UniProt P49137)?
3.16 to 31.6 nM

Which EC50 is reported with MK2 enzyme (Homo sapiens, UniProt P49137) for this entry: O=C1NCC2(CCNCC2)c2[nH]c(-c3ccnc(-c4nccs4)n3)cc21 ?
31.6 to 316 nM

Item: O=C1NCC2(CCNCC2)c2[nH]c(-c3ccnc(-c4ccc(C(F)(F)F)cc4)n3)cc21 Test system: MK2 enzyme (Homo sapiens, UniProt P49137) Read-out: EC50 Value: ?
3.16 to 31.6 nM
